# study.target: PKC-theta (Homo sapiens, UniProt Q04759)
# Construct: His-tag; made in house; host or cells: baculovirus-infected Sf9 cells
# Sequence (Q04759 whole entry): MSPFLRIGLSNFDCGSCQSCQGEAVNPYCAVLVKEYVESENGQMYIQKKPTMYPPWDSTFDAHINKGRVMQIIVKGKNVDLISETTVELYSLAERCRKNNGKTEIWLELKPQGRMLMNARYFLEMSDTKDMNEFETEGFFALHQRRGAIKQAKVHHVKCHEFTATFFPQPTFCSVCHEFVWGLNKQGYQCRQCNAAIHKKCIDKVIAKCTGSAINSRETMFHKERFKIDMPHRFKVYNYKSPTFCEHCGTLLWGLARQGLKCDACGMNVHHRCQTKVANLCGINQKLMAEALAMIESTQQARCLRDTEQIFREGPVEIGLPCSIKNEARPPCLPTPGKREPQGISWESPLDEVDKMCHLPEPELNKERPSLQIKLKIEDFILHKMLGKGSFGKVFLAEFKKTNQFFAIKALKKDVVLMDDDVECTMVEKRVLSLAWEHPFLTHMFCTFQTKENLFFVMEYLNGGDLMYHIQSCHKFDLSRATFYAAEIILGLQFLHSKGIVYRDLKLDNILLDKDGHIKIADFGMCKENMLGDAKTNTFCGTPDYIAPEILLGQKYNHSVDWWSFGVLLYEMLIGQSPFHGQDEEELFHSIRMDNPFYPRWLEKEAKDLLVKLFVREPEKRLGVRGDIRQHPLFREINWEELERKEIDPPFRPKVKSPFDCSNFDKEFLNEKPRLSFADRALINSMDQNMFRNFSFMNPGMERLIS
# protocol.details: In vitro kinase assay: peptide phosphorylation by PKC-theta
# Format: biochemical
# condition.summary: normalized to best substrate
The following ranges of PKC theta phosphorylation define the classes used here: low group = under 30%, middle group = from 30% up to 50%, high group = 50% and over

Input: Which band does 111 (KKKRFSFKKSFKLSGFSFKK) [compound 111] fall in?
Output: low group

Input: Which band does 107 (QKRHARVTVKYDRRE) [compound 107] fall in?
Output: middle group

Input: Quick check: band for 101 (GAPPRRSSIRNAH) [compound 101]
Output: low group

Input: Which class holds 102 (AGSFKRNSIKKIV) [compound 102] ?
Output: low group

Input: Which PKC theta phosphorylation category applies to 97 (KKRSSKKEASMKKVVRP) [compound 97] here?
Output: middle group

Input: Consider 91 (VHYTSKDTLRKRHYWR) [compound 91] . To which PKC theta phosphorylation class does it belong?
Output: low group

Input: Hey, which category is 83 (RKIPKRPGSVHRTPSRQ) [compound 83] in, do you know?
Output: high group

Input: Lab note: which band did 89 (EYLERRASRRRAV) [compound 89] land in?
Output: high group

Input: Place this substance in its band: 76 (HVRRRRGTFKRSKLRARD) [compound 76]
Output: high group

Input: Kindly identify the class of 98 (AGPLRKSSLKKGGRL) [compound 98] .
Output: low group

Input: Category of 93 (AARKKRISVKKKQEQ) [compound 93] , please.
Output: middle group

Input: Exercise: read the entry 84 (QKKSRLRRRASQLKI) [compound 84] and state which class it falls under.
Output: high group

Input: Dear colleague, I would appreciate it if you could identify the bin for 103 (LLKKRDSFRTPRDSKLE) [compound 103] and reply at your convenience.
Output: low group

Input: Which bin should I file 81 (KRERKTSSKSSVRKRR) [compound 81] under?
Output: middle group
